The origin of these recorded values is patent US9718828B2.

Target: hBTK (full-length BTK, 6HIS-tag cleaved) (Homo sapiens (Human))
Test: BTK enzymatic activity, IMAP-FP assay (Assay Method B)
Type: biochemical
Conditions: IMAP-FP, 1.05 nM hBTK, 5 μM ATP; read-out: IC50 Btk activity values - Assay Method B
pIC50: −log10 of the molar value.
value_kind: pIC50

Task: Give the measured pIC50 of CC1(C(=O)N2CCN[C@@H](c3nc(-c4ccc(C(=O)Nc5cc(C(F)(F)F)ccn5)cc4)c4c(N)nccn34)C2)CC1 .
Output: ≤ 6.00

* * *

Molecular target: Btk enzyme (His-Btk) (Homo sapiens (Human))
Sequence (Q06187 whole entry): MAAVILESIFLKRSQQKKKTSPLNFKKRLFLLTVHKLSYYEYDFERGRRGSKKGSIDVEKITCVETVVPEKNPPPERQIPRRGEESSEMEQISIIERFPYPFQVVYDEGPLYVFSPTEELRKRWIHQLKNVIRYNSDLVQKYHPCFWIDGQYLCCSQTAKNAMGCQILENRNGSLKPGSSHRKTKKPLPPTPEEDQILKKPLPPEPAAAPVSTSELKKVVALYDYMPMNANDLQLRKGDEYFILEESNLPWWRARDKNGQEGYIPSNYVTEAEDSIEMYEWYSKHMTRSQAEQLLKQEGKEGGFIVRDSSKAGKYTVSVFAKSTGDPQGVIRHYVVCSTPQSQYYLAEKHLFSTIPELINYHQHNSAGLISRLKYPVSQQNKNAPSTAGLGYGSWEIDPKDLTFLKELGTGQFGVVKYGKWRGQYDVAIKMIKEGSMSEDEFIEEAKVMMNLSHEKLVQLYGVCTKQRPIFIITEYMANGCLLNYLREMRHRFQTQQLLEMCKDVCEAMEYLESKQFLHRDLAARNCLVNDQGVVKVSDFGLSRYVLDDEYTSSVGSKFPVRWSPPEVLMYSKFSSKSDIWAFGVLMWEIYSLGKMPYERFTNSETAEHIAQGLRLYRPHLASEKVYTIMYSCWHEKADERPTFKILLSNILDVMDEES
Experiment: Btk enzyme activity, IMAP fluorescence polarization assay (Assay Method A)
pEC50: −log10 of the molar value. Where a name gives a salt, the structure may show the parent alone.
Readings of pEC50 for the listed compounds

Task: Give the measured pEC50 of Nc1nccn2c([C@@H]3CCCN(Cc4ccc[nH]4)C3)nc(-c3ccc(C(=O)Nc4cc(C5CC5)ccn4)cc3)c12 [Example 144, TFA salt] .
Output: 7.00 to 8.00

Task: Lookup CCC(=O)N1CCC[C@@H](c2nc(-c3ccc(C(=O)Nc4ccccn4)cc3)c3c(N)nccn23)C1
Output: > 8.00

Task: Lookup COCC1(C(=O)N2CCC[C@@H](n3nc(-c4ccc(C(=O)Nc5cc(C(F)(F)F)ccn5)cc4)c4c(N)ncnc43)C2)CCC1
Output: 7.00 to 8.00

Task: Lookup CC(C)(C#N)C(=O)N[C@@H]1CCC[C@@H](c2nc(-c3ccc(C(=O)Nc4cc(C(F)(F)F)ccn4)cc3)c3c(N)nccn23)C1 (relative stereo)
Output: > 8.00

Task: Lookup CC(C)C(=O)N1CCC[C@@H](n2nc(-c3ccc(C(=O)Nc4cc(C(F)(F)F)ccn4)cc3)c3c(N)ncnc32)C1
Output: 7.00 to 8.00

Task: Lookup Cc1noc(C)c1C(=O)N1CCC[C@@H](c2nc(-c3ccc(C(=O)Nc4cc(C(F)(F)F)ccn4)cc3)c3c(N)nccn23)C1
Output: > 8.00

* * *

Target: hBTK (full-length BTK, 6HIS-tag cleaved) (Homo sapiens (Human), UniProt Q06187)
Sequence (Q06187 whole entry): as above
Experiment: BTK enzymatic activity, LANCE TR-FRET assay (Assay Method C)
Type: biochemical
Conditions: LANCE TR-FRET, 50 pM hBTK, 25 μM ATP; class 100-1000 is given as ≧100 nM-<1 μM; read-out: IC50 Btk activity values - Assay Method C
Where a name gives a salt, the structure may show the parent alone.
value_kind: IC50

Solved entries (count: 2):
{"compound": "C[C@H]1CC[C@@H](c2nc(-c3ccc(C(=O)Nc4cc(OC5CC5)ccn4)cc3)c3c(N)nccn23)CN1C(=O)C1(C)COC1", "IC50": "< 10 nM"}
{"compound": "Nc1nccn2c([C@@H]3CCCN(C(=O)C4CC4(F)F)C3)nc(-c3ccc(C(=O)Nc4cc(C(F)(F)F)ccn4)cc3)c12 (stereo partly drawn)", "IC50": "< 10 nM"}

Now examine the next entry.
Task: Give the measured IC50 of Nc1ncnc2c1c(-c1ccc(C(=O)Nc3cc(C(F)(F)F)ccn3)cc1)nn2[C@@H]1CCCc2nn(CCO)cc21 [Example 562, TFA salt] .
Output: < 10 nM

* * *

Biological target: Btk enzyme (His-Btk) (Homo sapiens (Human))
Experiment: Btk enzyme activity, IMAP fluorescence polarization assay (Assay Method A)
Conditions: read-out: EC50 Btk activity values - Assay Method A; IMAP-FP, 60 min pre-incubation, 5 μM ATP; class 100-1000 is given as ≧100 nM-<1 μM
Readings of EC50 for the listed compounds

{"compound": "CCOC(=O)N1CCC[C@@H](n2nc(-c3ccc(C(=O)Nc4cc(C(F)(F)F)ccn4)cc3)c3c(N)ncnc32)C1", "val": "< 0.01 µM"}

Task: Give the measured EC50 of CCCc1ccnc(NC(=O)c2ccc(-c3nc(C4CCOCC4)n4c(Cl)cnc(N)c34)cc2)c1 .
Output: < 0.01 µM

Task: Lookup Nc1nccn2c([C@@H]3CCCN(C(=O)Nc4ccccc4Cl)C3)nc(-c3ccc(C(=O)Nc4cc(C5CC5)ccn4)cc3)c12
Output: < 0.01 µM

Task: Lookup CSCCC(=O)N1CCC[C@@H](n2nc(-c3ccc(C(=O)Nc4cc(C(F)(F)F)ccn4)cc3)c3c(N)ncnc32)C1
Output: < 0.01 µM

Task: Lookup CCC(=O)C(=O)N1CCC[C@@H](c2nc(-c3ccc(C(=O)Nc4cc(C5CC5)ccn4)cc3)c3c(N)nccn23)C1
Output: < 0.01 µM

Task: Lookup CCc1cnc(N)c2c(-c3ccc(C(=O)Nc4cc(C(F)(F)F)ccn4)cc3)nc([C@@H]3CCCN(C(=O)C4(C)COC4)C3)n12
Output: < 0.01 µM

Task: Lookup Nc1nccn2c1c(-c1ccc(C(=O)Nc3cc(C(F)(F)F)ccn3)cc1)nc2[C@H]1CC[C@H](O)CC1
Output: < 0.01 µM

Task: Lookup CCNC(=O)N[C@H]1CCC[C@@H](c2nc(-c3ccc(C(=O)Nc4cc(C(F)(F)F)ccn4)cc3)c3c(N)nccn23)C1 (relative stereo)
Output: < 0.01 µM

* * *

Molecular target: Btk enzyme (His-Btk) (Homo sapiens (Human))
Experiment: Btk enzyme activity, IMAP fluorescence polarization assay (Assay Method A)
Where a name gives a salt, the structure may show the parent alone.
Readings of EC50 for the listed compounds

Solved entries (count: 5):
{"compound": "CCN(CC)C(=O)C1CCCN(c2nc(-c3ccc(C(=O)Nc4ccccn4)cc3)c3c(N)nccn23)C1 (stereo not drawn) [Example 230, TFA salt]", "EC50": "0.01 to 0.1 µM"}
{"compound": "CS(=O)(=O)N1CC(C(=O)N2CCC[C@@H](c3nc(-c4ccc(C(=O)Nc5cc(C(F)(F)F)ccn5)cc4)c4c(N)nccn34)C2)C1 [Example 73]", "EC50": "< 0.01 µM"}
{"compound": "CCC(=O)N1C2CCC1C(c1nc(-c3ccc(C(=O)Nc4ccccn4)cc3)c3c(N)nccn13)C2 (stereo not drawn) [Example 147]", "EC50": "0.1 to 1 µM"}
{"compound": "C=CC1(C(=O)N2CCC[C@@H](c3nc(-c4ccc(C(=O)Nc5cc(C(F)(F)F)ccn5)cc4)c4c(N)nccn34)C2)COC1 [Example 91]", "EC50": "< 0.01 µM"}
{"compound": "Nc1nccn2c([C@@H]3CCCN(C(=O)C4CC4)C3)nc(-c3ccc(C(=O)Nc4ccccn4)cc3)c12 [Example 52]", "EC50": "< 0.01 µM"}

Now examine the next entry.
Task: Query for Btk enzyme (His-Btk) (Homo sapiens (Human)): what EC50 does the record show for CC1(C(=O)N2CCC[C@@H](c3nc(-c4ccc(C(=O)Nc5cc(C(F)(F)F)ccn5)cc4)c4c(N)ncc(C5=CCOCC5)n34)C2)COC1 [Example 322] ?
Output: 0.01 to 0.1 µM

* * *

Molecular target: Btk enzyme (His-Btk) (Homo sapiens (Human))
Test: Btk enzyme activity, IMAP fluorescence polarization assay (Assay Method A)
Details: read-out: EC50 Btk activity values - Assay Method A; IMAP-FP, 60 min pre-incubation, 5 μM ATP; class 100-1000 is given as ≧100 nM-<1 μM
Counter-ions that a name gives are not always drawn.
value_kind: EC50

Solved entries (count: 5):
{"compound": "Nc1nccn2c([C@@H]3CCC[C@@H](NC(=O)C4CCC4)C3)nc(-c3ccc(C(=O)Nc4cc(C(F)(F)F)ccn4)cc3)c12 (relative stereo) [Example 171]", "EC50": "< 10 nM"}
{"compound": "CCC(=O)NCC(C)c1nc(-c2ccc(C(=O)Nc3cc(C(F)(F)F)ccn3)cc2)c2c(N)nccn12 (stereo not drawn) [Example 130]", "EC50": "< 10 nM"}
{"compound": "COCCC(=O)N1CCOC(c2nc(-c3ccc(C(=O)Nc4cc(C(F)(F)F)ccn4)cc3)c3c(N)ncc(Cl)n23)C1 (stereo not drawn) [Example 314]", "EC50": "< 10 nM"}
{"compound": "N#Cc1csc(C(=O)N2CCC[C@@H](c3nc(-c4ccc(C(=O)Nc5cc(C6CC6)ccn5)cc4)c4c(N)nccn34)C2)c1 [Example 118]", "EC50": "< 10 nM"}
{"compound": "Nc1nccn2c(C3CCCC3)nc(-c3ccc(C(=O)Nc4ccccn4)cc3)c12 [Example 45, TFA salt]", "EC50": "< 10 nM"}

Now examine the next entry.
Task: Give the measured EC50 of CC(CO)(CO)C(=O)N1CCC[C@@H](c2nc(-c3ccc(C(=O)Nc4cc(C(F)(F)F)ccn4)cc3)c3c(N)nccn23)C1 [Example 105] .
Output: < 10 nM

* * *

Molecular target: hBTK (full-length BTK, 6HIS-tag cleaved) (Homo sapiens (Human))
Assay: BTK enzymatic activity, LANCE TR-FRET assay (Assay Method C)
Assay type: biochemical
Conditions: LANCE TR-FRET, 50 pM hBTK, 25 μM ATP; class 100-1000 is given as ≧100 nM-<1 μM; read-out: IC50 Btk activity values - Assay Method C
pIC50: −log10 of the molar value. Structures can show the parent of a compound that is named as a salt.
Readings of pIC50 for the listed compounds

{"compound": "Cc1cnc(N)c2c(-c3ccc(C(=O)Nc4cc(C(F)(F)F)ccn4)cc3)nc([C@H]3CN(C(=O)[C@H](C)O)CCO3)n12 [Example 543, TFA salt]", "target_desc": "hBTK (full-length BTK, 6HIS-tag cleaved) (Homo sapiens (Human))", "pIC50": "> 8.00"}

Task: Give the measured pIC50 of C[C@@H](O)C(=O)N1CCO[C@@H](c2nc(-c3ccc(C(=O)Nc4cc(C(F)(F)F)ccn4)cc3)c3c(N)nccn23)C1 .
Output: > 8.00

Task: Lookup COCc1cnc(N)c2c(-c3ccc(C(=O)Nc4cc(C(F)(F)F)ccn4)cc3)nc([C@@H]3CCCN(C(=O)C4(C)COC4)C3)n12
Output: > 8.00
